System: rat chronic carcinogenicity bioassay, TD50
Assay Procedure: DSSTox (CPDBAS) Carcinogenic Potency Database Summary Rat Bioassay Results
Study Conditions: TD50_Rat_Note: TD50 is harmonic mean of more than one positive test; TargetSites_Rat_Female: clitoral gland; ear Zymbals gland; large intestine; liver; small intestine; stronger effect = lower value
Property Label: Potency

- Nc1ccc2nc3ccccn3c2n1: 42.3 mg/kg/day

====

System: rat chronic carcinogenicity bioassay, TD50
Assay Procedure: DSSTox (CPDBAS) Carcinogenic Potency Database Summary Rat Bioassay Results
Study Conditions: TargetSites_Rat_Female: esophagus; liver; lung; nasal cavity; stronger effect = lower value
Property Label: Potency

* CN(CC(O)CO)N=O (stereo unspecified) | 0.646 mg/kg/day

====

Test system: rat chronic carcinogenicity bioassay, TD50
Assay Procedure: DSSTox (CPDBAS) Carcinogenic Potency Database Summary Rat Bioassay Results
Study Conditions: TD50_Rat_Note: TD50 is harmonic mean of more than one positive test; greater than ten-fold variation among TD50 values for positive res; TargetSites_Rat_BothSexes: liver; stronger effect = lower value
Property Label: Potency

• COc1cc2c(c3oc4cccc(O)c4c(=O)c13)C1C=COC1O2 (stereo unspecified) = 0.152 mg/kg/day

====

Test system: rat chronic carcinogenicity bioassay, TD50
Assay Procedure: DSSTox (CPDBAS) Carcinogenic Potency Database Summary Rat Bioassay Results
Study Conditions: TargetSites_Rat_Female: mesovarium; stronger effect = lower value
Property Label: Potency

- CC(C)(C)NCC(O)c1cc(O)cc(O)c1 (stereo unspecified): 410 mg/kg/day

====

Test system: rat chronic carcinogenicity bioassay, TD50
Assay Procedure: DSSTox (CPDBAS) Carcinogenic Potency Database Summary Rat Bioassay Results
Study Conditions: TD50_Rat_Note: TD50 is harmonic mean of more than one positive test; harmonic mean of TD50 includes a value for upper 99% confidence li; TargetSites_Rat_Female: lung; mammary gland; stomach; uterus; stronger effect = lower value
Description: The Carcinogenic Potency Database (CPDB) is a unique and widely used international resource of the results of over 6500 chronic, long-term animal cancer tests on over 1500 chemical substances. The CPDB provides easy access to the bioassay literature, with qualitative and quantitative analyses of both positive and negative experiments that have been published over the past 50 years in the general literature and by the National Cancer Institute/National Toxicology Program. […]
Property Label: Potency

• CCCCCCN(N=O)C(N)=O = 0.513 mg/kg/day

====

Tested on: rat chronic carcinogenicity bioassay, TD50
Assay Procedure: DSSTox (CPDBAS) Carcinogenic Potency Database Summary Rat Bioassay Results
Study Conditions: TD50_Rat_Note: TD50 is harmonic mean of more than one positive test; greater than ten-fold variation among TD50 values for positive res; TargetSites_Rat_Female: liver; mammary gland; nasal cavity; stronger effect = lower value
Property Label: Potency

* C1COCCO1 | 267 mg/kg/day

====

System: rat chronic carcinogenicity bioassay, TD50
Assay Procedure: DSSTox (CPDBAS) Carcinogenic Potency Database Summary Rat Bioassay Results
Study Conditions: TD50_Rat_Note: TD50 is harmonic mean of more than one positive test; TargetSites_Rat_Female: liver; stronger effect = lower value
Excerpt: The Carcinogenic Potency Database (CPDB) is a unique and widely used international resource of the results of over 6500 chronic, long-term animal cancer tests on over 1500 chemical substances. The CPDB provides easy access to the bioassay literature, with qualitative and quantitative analyses of both positive and negative experiments that have been published over the past 50 years in the general literature and by the National Cancer Institute/National Toxicology Program. […]
Item-by-item account of Potency
Property Label: Potency

* Clc1ccc(C(c2ccc(Cl)cc2)C(Cl)(Cl)Cl)cc1 | 84.7 mg/kg/day
* NC(=O)OCC(COC(N)=O)c1ccccc1 | 1090 mg/kg/day
* C[C@]12CC[C@H](O)CC1=CC[C@@H]1[C@@H]2CC[C@]2(C)C(=O)CC[C@@H]12 | 83.5 mg/kg/day
* Nc1ccc(N=Nc2ccc(-c3ccc(N=Nc4c(S(=O)(=O)O)cc5cc(S(=O)(=O)O)c(N=Nc6ccccc6)c(O)c5c4N)cc3)cc2)c(N)c1 | 1.39 mg/kg/day
* Nc1cc(S(=O)(=O)O)cc2cc(S(=O)(=O)O)c(N=Nc3ccc(-c4ccc(N=Nc5c(S(=O)(=O)O)cc6cc(S(=O)(=O)O)cc(N)c6c5O)cc4)cc3)c(O)c12 | 1.73 mg/kg/day
* CC(N)=O | 180 mg/kg/day
* CC(=O)N(O)c1ccc2c(c1)Cc1ccccc1-2 | 0.988 mg/kg/day
* Cc1ccc2c(c1[N+](=O)[O-])C(=O)c1ccccc1C2=O | 84.8 mg/kg/day
* CCCCCN(CCCCC)N=O | 4.03 mg/kg/day
* CC(=O)O[C@H]1CC[C@@]2(C)C(=CC[C@@H]3[C@@H]2CC[C@]2(C)C(=O)CC[C@@H]32)C1 | 49.6 mg/kg/day
